Target: T1, Human Siglec-5 (human, UniProt O15389 17-551)
T1 construct: Expressed on transfected CHO cells; also called HuSiglec-5
T1 sequence: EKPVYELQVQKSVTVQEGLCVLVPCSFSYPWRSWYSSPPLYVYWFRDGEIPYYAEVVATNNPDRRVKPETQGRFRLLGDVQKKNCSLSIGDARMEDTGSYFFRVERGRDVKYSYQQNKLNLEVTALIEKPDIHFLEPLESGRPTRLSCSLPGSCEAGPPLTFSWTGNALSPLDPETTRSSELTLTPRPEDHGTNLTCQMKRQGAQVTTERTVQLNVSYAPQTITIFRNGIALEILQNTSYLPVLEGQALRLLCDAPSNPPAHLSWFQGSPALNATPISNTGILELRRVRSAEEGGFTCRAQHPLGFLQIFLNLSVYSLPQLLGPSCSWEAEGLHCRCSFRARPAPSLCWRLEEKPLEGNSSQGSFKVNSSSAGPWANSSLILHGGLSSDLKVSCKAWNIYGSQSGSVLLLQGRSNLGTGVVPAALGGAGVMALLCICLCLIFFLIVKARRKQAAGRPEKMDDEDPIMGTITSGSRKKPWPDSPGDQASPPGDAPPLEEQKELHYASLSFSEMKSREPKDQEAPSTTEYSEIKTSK
Test: flow cytometry, CHO transfectants

binder	binding result
mAbD (antibody, human IgG1, V domains shown) VH: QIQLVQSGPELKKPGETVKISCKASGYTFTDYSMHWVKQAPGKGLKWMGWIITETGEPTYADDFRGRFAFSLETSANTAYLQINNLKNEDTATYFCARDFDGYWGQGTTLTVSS VL: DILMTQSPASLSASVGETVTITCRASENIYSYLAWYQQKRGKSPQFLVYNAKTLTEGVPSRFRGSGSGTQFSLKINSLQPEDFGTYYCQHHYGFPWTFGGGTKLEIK	no binding
mAbE (antibody, human IgG1, V domains shown) VH: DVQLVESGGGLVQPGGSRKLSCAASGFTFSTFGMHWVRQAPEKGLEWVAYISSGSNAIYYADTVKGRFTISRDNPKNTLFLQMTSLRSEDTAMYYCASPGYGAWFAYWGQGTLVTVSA VL: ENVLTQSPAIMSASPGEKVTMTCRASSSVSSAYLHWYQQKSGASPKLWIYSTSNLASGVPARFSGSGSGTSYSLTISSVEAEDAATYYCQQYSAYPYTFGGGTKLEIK	no binding
